Biological target: human orexin 1 receptor (Homo sapiens)
Test: Human orexin 1 receptor radioligand binding
Conditions: human orexin 1 receptor radioligand binding; averages of 2-20 runs; read-out: hOX1 Ki
REPORTED ENDPOINT: Ki
The answer consists of two parts: a number and, after it, its unit.

Data point: C[C@H]1[C@H](Oc2ccc(C(F)(F)F)cn2)CCCN1C(=O)c1cccc(F)c1-n1nccn1 [Example 124] ; Ki = 13 nM

Ki for C[C@H]1[C@H](Oc2cnc(C(F)(F)F)cn2)CCCN1C(=O)c1cccc(F)c1-n1nccn1 [Example 125] is 138 nM

// Ki value for Cc1cccc(C(=O)N2CCC[C@@H](Oc3cnc(C(F)(F)F)cn3)[C@@H]2C)c1-c1ncccn1 [Example 171] : 29 nM

The molecule identified as C[C@H]1[C@H](Oc2ccc(Cl)cn2)CCCN1C(=O)c1ncccc1-c1ncccn1 [Example 218] registered its Ki at 29 nM

So, Cc1cccc(C(=O)N2CCC[C@@H](Oc3ncc(C(F)(F)F)cn3)[C@@H]2C)c1-c1ncccn1 [Example 167] ? Its Ki was 28 nM

get_value(item= C[C@H]1[C@H](Oc2ccc(C(F)(F)F)cn2)CCCN1C(=O)c1ccc(F)cc1-c1ncccn1 [Example 139] , readout=Ki) returns 51 nM

# Ki (molecule: Cc1cccc(C(=O)N2CCC[C@@H](Oc3ccc(C(F)(F)F)cn3)[C@@H]2C)c1-c1ncccn1 [Example 151] ) is 31 nM
